# study-system: adenosine A2A receptor (Homo sapiens (Human))
# assay-overview: Adenosine receptor activity assay (Table 1), A2A activity
# Assay type: biochemical
# stated-conditions: read-out: Ave A2A cAMP IC50
readout-label: IC50

1) COc1ccc([C@H](C)Nc2nc(C(=O)N3CC(NC(=O)OC(C)C)C3)c3sc(C)cc3n2)cc1 [Example Z555]
0.05 to 0.1 µM
2) Cc1cc2nc(N[C@@H](C)c3cncc(F)c3)nc(C(=O)N3CC(C(N)=O)C3)c2s1 [Example Z504]
> 0.5 µM

The record that follows has no IC50 shown yet.
Q: Sample N[C@@H]1CCN(C(=O)c2nc(NCc3cncc(F)c3)nc3ccsc23)C1 [Example Z361] — what was its IC50?
A: > 0.5 µM

###

# study-system: adenosine A2B receptor (Homo sapiens (Human), UniProt P29275)
# Sequence (P29275 whole entry): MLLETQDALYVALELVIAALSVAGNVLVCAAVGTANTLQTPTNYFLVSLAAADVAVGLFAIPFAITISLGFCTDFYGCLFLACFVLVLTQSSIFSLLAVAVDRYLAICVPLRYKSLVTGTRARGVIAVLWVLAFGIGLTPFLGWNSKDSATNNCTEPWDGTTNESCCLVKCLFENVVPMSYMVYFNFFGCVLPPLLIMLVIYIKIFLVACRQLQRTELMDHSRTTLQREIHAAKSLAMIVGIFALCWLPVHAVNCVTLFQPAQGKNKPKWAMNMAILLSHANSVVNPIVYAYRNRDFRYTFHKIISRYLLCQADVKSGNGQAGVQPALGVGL
# assay-overview: Adenosine receptor activity assay (Table 1), A2B activity
# Format: biochemical
# stated-conditions: read-out: Ave A2B cAMP IC50
IC50 overview

A selection of reference data follows.
1. Cc1cc2nc(N[C@@H](C)c3cncc(F)c3)nc(C(=O)NC[C@H]3CCOC3)c2s1 [Example Z390]
< 10 nM
2. O=C(c1nc(NCc2cncnc2)nc2ccsc12)N1CCCC1 [Example Z5]
100 to 500 nM

Q: Look up IC50 with adenosine A2B receptor (Homo sapiens (Human), UniProt P29275) for this compound: Cc1csc2c(C(=O)N3CC(NC(=O)C(C)(C)C)C3)nc(N[C@@H](C)c3ccccn3)nc12 [Example Z559]
A: 10 to 50 nM

Q: For adenosine A2B receptor (Homo sapiens (Human), UniProt P29275), provide IC50 of Cc1cc2nc(N[C@@H](C)c3cncc(F)c3)nc(C(=O)N3CC(NC(=O)C4CCOC4)C3)c2s1 (some centres unmarked) [Example Z523] please.
A: < 10 nM

###

Catalogue of compounds with associated IC50
# study-system: adenosine A2A receptor (Homo sapiens (Human))
# assay-overview: Adenosine receptor activity assay (Table 1), A2A activity
# Type: biochemical
# stated-conditions: read-out: Ave A2A cAMP IC50

Example results:
1) Cc1cc2nc(N[C@@H](C)c3cncc(F)c3)nc(C(=O)N3CC(NC(=O)C4CCOC4)C3)c2s1 (stereo partly shown) [Example Z523]
10 to 50 nM
2) Cc1cc2nc(N[C@@H](C)c3ccccn3)nc(C(=O)N3CC(C(=O)OC(C)(C)C)C3)c2s1 [Example Z552]
10 to 50 nM
3) C[C@H](Nc1nc(C(=O)N[C@H]2C[C@H](O)C2)c2sccc2n1)c1ccccn1 [Example Z159]
100 to 500 nM

Q: Request: IC50, test system adenosine A2A receptor (Homo sapiens (Human)), entry CO[C@H]1CCN(C(=O)c2nc(N[C@@H](C)c3ccccn3)nc3c(C)csc23)C1 [Example Z440]
A: 100 to 500 nM

###

# Lookup of reported pIC50 keyed by entry
# study-system: adenosine A2B receptor (Homo sapiens (Human))
# assay-overview: Adenosine receptor activity assay (Table 1), A2B activity
# Type: biochemical
# stated-conditions: read-out: Ave A2B cAMP IC50
pIC50: −log10 of the molar value.

Q: Would you mind telling me what pIC50 value was observed for COc1ccc(CNc2nc(C(=O)N3CCCC3)c3sccc3n2)cn1 [Example Z17] ?
A: 6.30 to 7.00

Q: Item under review: C[C@H](Nc1nc(C(=O)N2CCC(C(=O)NOC(C)(C)C)C2)c2sccc2n1)c1cncc(F)c1 (some centres unmarked) [Example Z549] . Reported pIC50?
A: 7.30 to 8.00

Q: Item under review: Cc1cc2nc(N[C@@H](C)c3cccnc3)nc(C(=O)NC[C@H]3CCOC3)c2s1 [Example Z388] . Reported pIC50?
A: 7.00 to 7.30

Q: If you can, please state the reported pIC50 value of O=C(c1nc(NCc2cccc(F)n2)nc2ccsc12)N1CCCC1 [Example Z71] .
A: 7.00 to 7.30

Q: Would you mind telling me what pIC50 value was observed for O=C(c1nc(NCc2cccc(Cl)c2)nc2ccsc12)N1CCCC1 [Example Z120] ?
A: 7.30 to 8.00

Q: // lookup pIC50 for Cc1cc2nc(N[C@@H](C)c3cncc(F)c3)nc(C(=O)N3CC(NC(=O)C4CC4)C3)c2s1 [Example Z522]
A: > 8.00

Q: Form field: reported pIC50 of N[C@H]1CCN(C(=O)c2nc(NCc3cc(F)cc(F)c3)nc3ccsc23)C1 [Example Z371]
A: < 6.30

Q: Could you tell me which pIC50 is on file for CC(=O)N[C@@H]1CCN(C(=O)c2nc(NCc3cncc(F)c3)nc3ccsc23)C1 [Example Z318] ?
A: < 6.30

###

# study-system: adenosine A2B receptor (Homo sapiens (Human))
# assay-overview: Adenosine receptor activity assay (Table 1), A2B activity
# Type: biochemical
# stated-conditions: read-out: Ave A2B cAMP IC50
readout-label: IC50

Solved cases (5 shown):
1. COc1ccc(NC(=O)c2nc(N[C@@H](C)c3ccccn3)nc3ccsc23)cn1 [Example Z65]
50 to 100 nM
2. C[C@H](Nc1nc(C(=O)NCCc2cccc(O)c2)c2sccc2n1)c1cccnc1 [Example Z427]
50 to 100 nM
3. COC[C@@H](Nc1nc(C(=O)NCCc2ccc(O)cc2)c2sccc2n1)c1cccnc1 [Example Z403]
10 to 50 nM
4. Cc1cc2nc(N[C@@H](C)c3cccnc3)nc(C(=O)NCC[C@@H]3CCNC3)c2s1 [Example Z500]
> 500 nM
5. COc1ccc([C@H](C)Nc2nc(C(=O)NCc3cccnc3)c3sccc3n2)cc1 [Example Z435]
100 to 500 nM

Q: Entry under review: C[C@H](Nc1nc(C(=O)NCCc2ccc(Cl)cc2)c2sccc2n1)c1cncc(F)c1 [Example Z385] . Reported IC50?
A: 50 to 100 nM

Q: Entry Cc1csc2c(C(=O)N3CCCC3)nc(N[C@@H](C)c3cncc(F)c3)nc12 [Example Z414] : reported IC50 = ?
A: < 10 nM

Q: What value of IC50 has been reported for the following molecule? CN[C@@H]1CCN(C(=O)c2nc(N[C@@H](C)c3cncc(F)c3)nc3cc(C)sc23)C1 [Example Z560]
A: 50 to 100 nM

Q: What value of IC50 has been recorded for this entry: CN[C@H]1CCN(C(=O)c2nc(N[C@@H](C)c3cncc(F)c3)nc3cc(C)sc23)C1 [Example Z561]
A: 50 to 100 nM

###

Listed below: IC50 values for each entry.
# study-system: adenosine A2A receptor (Homo sapiens (Human))
# assay-overview: Adenosine receptor activity assay (Table 1), A2A activity
# Assay type: biochemical
# stated-conditions: read-out: Ave A2A cAMP IC50

For orientation, consider the following solved cases.
1. CCOc1ccc(CNc2nc(C(=O)N3CCC3)c3sccc3n2)cn1 [Example Z453]
100 to 500 nM
2. C[C@H](Nc1nc(C(=O)N2CC[C@H](F)C2)c2sccc2n1)c1ccccn1 [Example Z53]
50 to 100 nM

Q: Name the recorded IC50 for O=C(c1nc(NCc2cncc(Cl)c2)nc2ccsc12)N1CCCC1 [Example Z93] .
A: > 500 nM

Q: Which IC50 value is on record for Cc1cc2nc(N[C@@H](C)c3cccnc3)nc(C(=O)NC[C@@H]3CCOC3)c2s1 [Example Z387] ?
A: > 500 nM

###

IC50 values by entry
# study-system: adenosine A3 receptor (Homo sapiens (Human))
# Sequence (P0DMS8 whole entry): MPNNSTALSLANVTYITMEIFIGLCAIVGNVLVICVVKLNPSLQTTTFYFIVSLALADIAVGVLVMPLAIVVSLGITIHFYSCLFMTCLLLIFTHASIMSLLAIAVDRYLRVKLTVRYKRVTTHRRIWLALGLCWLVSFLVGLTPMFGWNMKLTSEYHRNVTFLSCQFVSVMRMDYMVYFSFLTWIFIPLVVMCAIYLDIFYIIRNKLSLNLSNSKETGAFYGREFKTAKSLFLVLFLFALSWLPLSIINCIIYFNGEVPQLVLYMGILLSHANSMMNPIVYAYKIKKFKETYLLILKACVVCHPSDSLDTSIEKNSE
# assay-overview: Adenosine receptor activity assay (Table 1), A3 cAMP
# Format: cell-based

Completed entries (count: 4):
1. CO[C@H]1CCN(C(=O)c2nc(N[C@@H](C)c3ccccn3)nc3cc(C)sc23)C1
50 to 100 nM
2. C[C@H](Nc1nc(C(=O)N2CC[C@@H](CO)C2)c2sccc2n1)c1cncc(F)c1
> 500 nM
3. Cc1cc2nc(N[C@@H](C)c3ccccn3)nc(C(=O)N3CCCC3)c2s1
50 to 100 nM
4. C[C@H](Nc1nc(C(=O)N2CCCC2)c2sc(C(F)(F)F)cc2n1)c1cccnc1
> 500 nM

Let us examine a further case.
Q: I'd like to know its IC50. The molecule in question is `C[C@H](O)CNC(=O)c1nc(N[C@@H](C)c2cccnc2)nc2cc(C(F)(F)F)sc12`
A: 50 to 100 nM

###

Measured IC50 accompanies every entry in the list below.
# study-system: adenosine A2A receptor (Homo sapiens (Human), UniProt P29274)
# Sequence (P29274 whole entry): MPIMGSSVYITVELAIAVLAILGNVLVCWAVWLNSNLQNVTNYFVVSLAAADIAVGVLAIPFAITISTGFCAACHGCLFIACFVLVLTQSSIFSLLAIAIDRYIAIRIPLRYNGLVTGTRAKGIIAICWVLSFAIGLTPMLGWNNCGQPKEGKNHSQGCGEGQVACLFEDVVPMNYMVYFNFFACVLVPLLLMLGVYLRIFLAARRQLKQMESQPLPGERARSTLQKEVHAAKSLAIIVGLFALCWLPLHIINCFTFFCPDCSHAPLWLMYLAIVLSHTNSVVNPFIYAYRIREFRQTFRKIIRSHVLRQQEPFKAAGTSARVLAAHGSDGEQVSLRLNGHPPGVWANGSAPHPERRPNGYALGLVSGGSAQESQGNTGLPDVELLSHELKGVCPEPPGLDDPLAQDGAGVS
# assay-overview: Adenosine receptor activity assay (Table 1), A2A activity
# Type: biochemical
# stated-conditions: read-out: Ave A2A cAMP IC50

1. O=C(NCc1cncnc1)c1nc(NCc2cncnc2)nc2ccsc12 [Example Z4]
> 500 nM
2. C[C@H](Nc1nc(C(=O)N2CC[C@H](O)C2)c2sccc2n1)c1cccc(F)c1 [Example Z129]
100 to 500 nM
3. COc1cc(F)cc(CNc2nc(C(=O)N3CC(O)C3)c3sccc3n2)c1 [Example Z137]
100 to 500 nM
4. Cc1cc2nc(N[C@@H](C)c3ccccn3)nc(C(N)=O)c2s1 [Example Z480]
> 500 nM
5. CO[C@H]1CCN(C(=O)c2nc(N[C@@H](C)c3ccccn3)nc3ccsc23)C1 [Example Z255]
10 to 50 nM

Q: What does the data say about its IC50? Entry: CNc1cc2nc(N[C@@H](C)c3ccccn3)nc(C(=O)N3CC[C@@H](C)C3)c2s1 [Example Z207]
A: 100 to 500 nM

Q: Item COc1ccc(Oc2cc(CNC(=O)c3nc(N[C@@H](C)c4cncc(F)c4)nc4ccsc34)ccn2)cc1 [Example Z398] has what recorded IC50?
A: 100 to 500 nM

Q: Suppose we examine the molecule C[C@H](Nc1nc(C(=O)NCc2ccccn2)c2sccc2n1)c1cccnc1 [Example Z89] ; what IC50 value has been reported?
A: 10 to 50 nM
